# Test Method Notes: viability loss in pontine glioma line – cell-based, SU-DIPG-XVII, MIPE5.0, CellTiter-Glo, qHTS, dose response (AID 1347060);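 on AC50: cells exposed to compound for 48 hours before viability readout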
# Study Conditions: CellTiter-Glo ATP luminescence
Results filed as inconclusive are left out. Calls of active or inactive are those of the source. Cut-off not given; nearly all actives show AC50 up to about 26 µM.
Outcome codes: active, inactive

Cc1c(NC(=O)OCC2COCCN2)cn2ncnc(Nc3ccc4c(cnn4Cc4cccc(F)c4)c3)c12 (stereo not given) ... active
COc1cc2nc(N3CCCN(C)CC3)nc(NC3CCN(Cc4ccccc4)CC3)c2cc1OC ... active
CN1CCN(C2CCC(n3cc(-c4ccc(Oc5ccccc5)cc4)c4c(N)ncnc43)CC2)CC1 (stereo not given) ... active
CC(/C=C1\SC(=S)N(CC(=O)O)C1=O)=C\c1ccccc1 ... inactive
Nc1ccc(C(=O)c2cc3c(ccc4ccccc43)[nH]2)cc1 ... active
CNCCCOc1cc(F)c(-c2c(Cl)nc3ncnn3c2N[C@@H](C)C(F)(F)F)c(F)c1 ... active
O=C1c2cccc(O)c2C(=O)c2c(O)cc(CO)cc21 ... inactive
C/C(=N\NC(=S)N1CCC1)c1ccccn1 ... active
CC(C)=CCC/C(C)=C/CC/C(C)=C/CSc1ccccc1C(=O)O ... inactive
Cc1nc(-c2cn3c(n2)-c2ccc(-c4cnn(C(C)(C)C(N)=O)c4)cc2OCC3)n(C(C)C)n1 ... active

###

# Test Method Notes: growth inhibition of DIPG cells – cell-based, MIPE4.0 library, CellTiter-Glo luminescence, qHTS (AID 1347066);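 further: cells exposed to compound for 48 hours before readout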
# Study Conditions: SU-DIPG-VI viability, CellTiter-Glo ATP luminescence
Records with an inconclusive call do not appear. The source made the active and inactive calls. The limit is not given here; nearly all actives have AC50 up to about 30 µM.
Outcome codes: 1 (active), 0 (inactive)

O=C(O)C1=CO[C@@H](O[C@@H]2O[C@H](CO)[C@@H](O)[C@H](O)[C@H]2O)[C@@H]2C(CO)=CC[C@H]12 ... 0
Cc1ccc(NC(=O)c2cccc(C(C)(C)C#N)c2)cc1Nc1ccc2ncn(C)c(=O)c2c1 ... 0
Cc1cc(/C=c2/sc3nc4ccccc4n3c2=O)c(C)n1-c1ccccc1 ... 0
CC1(O)CC(c2nc(-c3ccc4ccc(-c5ccccc5)nc4c3)c3c(N)nccn23)C1 (stereo not given) ... 1
Cc1c(CN2CCN(S(C)(=O)=O)CC2)sc2c(N3CCOCC3)nc(-c3cnc(N)nc3)nc12 ... 1
CC(C)Nc1cc(C(F)(F)F)cc2nc(NC(=O)c3cccnc3)nn12 ... 0
C/C=C/C/C=C/CCC(=O)[C@H]1O[C@H]1C(N)=O ... 0
COc1ccc(Cn2ccc3ccc(C(=O)NO)cc32)cc1 ... 0
O=C(OCC#CCSc1nnc(-c2cccc3ccccc23)o1)c1cc2ccccc2s1 ... 0
CC(C)N(CC[C@H](c1ccccc1)c1cc(CO)ccc1O)C(C)C ... 0

###

# Test Method Notes: MELAS cybrid and Rieske KO viability enhancers – cell-based, MELAS cybrids, Rieske KO mouse fibroblasts, CellTiter-Glo, primary screen (AID 1508586);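 further: z relative to plate mean and SD of compound and empty wells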
# Study Conditions: Rieske KO mouse fibroblast survival, low glucose, CellTiter-Glo 72 h
Metric Name: z-score

Cc1ccc(S(=O)(=O)Cc2nc(-c3ccc(C(=O)NCc4cccnc4)cc3)oc2C)cc1 ... -0.8
Cc1ccc(NC(=O)c2cccc(C(C)(C)C#N)c2)cc1Nc1ccc2ncn(C)c(=O)c2c1 ... -1.35
O=C1NC(O)=NC1(c1ccccc1)c1ccccc1 ... -0.0769
CNC(=O)CN1CCC(Oc2cc3c(Nc4cccc(Cl)c4F)ncnc3cc2OC)CC1 ... -0.429
CC(C)(C)Cn1c(N)nc2ccc(-c3[nH]c(C(C)(C)C)nc3-c3ccc(F)cc3)nc21 ... 0.553
Nc1cccc2c1C(=O)N(C1CCC(=O)NC1=O)C2=O (stereo unspecified) ... 0.628
COc1cc(OC)c2c(=O)[nH]c(-c3cc(C)c(OCCO)c(C)c3)nc2c1 ... -1.26
CC(=O)Nc1cccc(-n2c(=O)n(C3CC3)c(=O)c3c(Nc4ccc(I)cc4F)n(C)c(=O)c(C)c32)c1 ... -0.112
C[C@@]1(c2cc(-c3cncnc3)c(F)cc2F)CCSC(N)=N1 ... 0.36
NC(=Nc1ccccc1)NC(=O)c1nc(Cl)c(N)nc1N ... 0.859
CC1(C)O[C@@H]2C[C@H]3[C@@H]4CCC5=CC(=O)C=C[C@]5(C)[C@H]4[C@@H](O)C[C@]3(C)[C@]2(C(=O)CO)O1 ... 0.349

###

# Test Method Notes: viability loss with induced miR-34 in A549 – imaging, A549 dox-inducible miR-34, nuclei and caspase counts, primary screen (AID 1347080)
# Study Conditions: A549 miR-34 inducible, Hoechst nuclei count, 48 h; measured here: total cells with miR-34 induction; stronger effect = lower value
Label class 1 when cell count is strictly below 6000; at or above that, label class 0.

CNC(=O)c1ccccc1Nc1nc(Nc2ccc(N3CCOCC3)cc2OC)ncc1Cl ... class 1
CCCCC[C@](C)(O)/C=C/[C@@H]1[C@@H](C/C=C\CCCC(=O)OC)[C@@H](O)C[C@H]1O ... class 0
CC(C)c1cc2c(c(O)c1O)C13CCCC(C)(C)C1CC2OC3=O (stereo not given) ... class 1
CC1Nc2ccc(Cl)cc2S(=O)(=O)N1 (stereo not given) ... class 0
CC(C)c1ccc(C(=O)c2cccs2)c(SCCCCCCCCN(C)C)n1 ... class 1
C[C@@H](NCc1cc(Br)cc2[nH]c(=O)c(=O)[nH]c12)P(=O)(O)O ... class 0
CCCCC[C@H](O)/C=C/[C@@H]1[C@@H](C/C=C\CCCC(=O)NCC)[C@@H](O)C[C@H]1O ... class 1
O=C(O)CCCCCC[C@H]1C(=O)C[C@@H](O)[C@@H]1/C=C/[C@@H](O)Cc1ccccc1 ... class 1
C[C@@H]1CC2C3CCC4=CC(=O)C=CC4(C)C3(F)[C@@H](O)CC2(C)C1(O)C(=O)CO (stereo not given in full) ... class 0
C[C@@H]1O[C@@]2(CS1)CN1CCC2CC1 (racemic) ... class 0

###

# Test Method Notes: viability loss in pontine glioma line – cell-based, SU-DIPG-XXV, MIPE5.0, CellTiter-Glo, qHTS, dose response (AID 1347065);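 further: cells exposed to compound for 48 hours before ATP readout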
# Study Conditions: CellTiter-Glo ATP luminescence
Results filed as inconclusive are left out. Activity calls are given as the source filed them. No cut-off is given here; in the data, nearly all actives have AC50 up to about 26 µM.
Metric Name: AC50

C=CC(=O)Nc1cc2c(Nc3ccc(F)c(Cl)c3)ncnc2cc1C#CC(C)(C)N1CCN(C)CC1 ... 5.9 µM (active)
COc1cc(-c2nn(C3CCC(N4CCN(C(C)=O)CC4)CC3)c3ncnc(N)c23)ccc1NC(=O)c1cc2ccccc2n1C (stereo not given) ... 4.17 µM (active)
N#Cc1ccc(Cn2cncc2CN2CCN(c3cccc(Cl)c3)C(=O)C2)cc1 ... 9.34 µM (active)
CCCCCN(CCC12CC3CC(CC(C3)C1)C2)C(=O)NCCCc1ccncc1 ... 20.9 µM (active)
CCn1c(=O)c(-c2ccn[nH]2)cc2c(C)nc(N)nc21 ... 4.17 µM (active)

###

z-score values by entry
# Test Method Notes: MELAS cybrid and Rieske KO viability enhancers – cell-based, MELAS cybrids, Rieske KO mouse fibroblasts, CellTiter-Glo, primary screen (AID 1508586);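 further: z relative to plate mean and SD of compound and empty wells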
# Study Conditions: MELAS cybrid survival, low glucose, CellTiter-Glo 48 h; stronger effect = higher value
Metric Name: z-score

O=C(Nc1cccnc1)N1CCC(Cc2cccc(Oc3ccc(C(F)(F)F)cn3)c2)CC1 ... -0.261
CNC(=O)c1ccc2cc(C3(O)CCn4cncc43)ccc2c1 (stereo not given) ... 0.566
CCc1nc(-c2cccc(C)c2)c(-c2ccnc(NC(=O)c3ccccc3)c2)s1 ... 0.655
CC(C)CC(=O)Nc1n[nH]c2c1CN(C(=O)C1CCN(C)CC1)C2(C)C ... 2.08
O=S(=O)(O)CCSSCCS(=O)(=O)O ... -0.449
COc1cc(Nc2nc3ccccc3nc2NS(=O)(=O)c2ccc(NC(=O)c3ccc(C)c(OC)c3)cc2)cc(OC)c1 ... -0.401
CCC(CC)CC1(C(=O)Nc2ccccc2SC(=O)C(C)C)CCCCC1 ... -0.325
CCCS(=O)(=O)Nc1ccc(F)c(C(=O)c2c[nH]c3ncc(-c4ccc(Cl)cc4)cc23)c1F ... -0.461
CC(C)c1cc(C(=O)N2Cc3ccc(CN4CCN(C)CC4)cc3C2)c(O)cc1O ... 2.68
COC(=O)N1CCN(Cc2cccc(NC(=O)Nc3ccc(C)nc3)c2F)CC1 ... -0.446

###

# Test Method Notes: viability loss in pontine glioma line – cell-based, JHH-DIPG-1, MIPE4.0, CellTiter-Glo, qHTS, dose response (AID 1347062);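 on AC50: cells exposed to compound for two days before readout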
# Study Conditions: JHH-DIPG-1 viability, CellTiter-Glo ATP luminescence
Inconclusive results are not listed. Active and inactive are the calls of the source. No cut-off is given here; in the data, nearly all actives have AC50 up to about 27 µM.
Metric Name: AC50

O=C(NCc1ccccc1)c1csc(Nc2ccncn2)n1 ... 4.18 µM (active)
Cc1cnn(C)c1C(=O)Nc1cc(Nc2ccc3c(/C=C/c4ccccn4)n[nH]c3c2)ccc1F ... 18.7 µM (active)
Cc1cn([C@@H]2O[C@H](CO)[C@@H](O)[C@@H]2F)c(=O)[nH]c1=O ... inactive
CCOc1cc2ncc(C#N)c(Nc3ccc(F)c(Cl)c3)c2cc1NC(=O)/C=C/CN(C)C ... 7.43 µM (active)
CC(C)(O)c1cc2nc(-c3cnc(N)nc3)nc(N3CCOCC3)c2s1 ... 0.833 µM (active)
Cc1ccc(NC(=O)C2(c3ccc4c(c3)OC(F)(F)O4)CC2)nc1-c1cccc(C(=O)O)c1 ... 0.0833 µM (active)
Nc1nc(N)c(N=O)c(OCC2CCCCC2)n1 ... 14.8 µM (active)
Nc1cc(C(F)(F)F)c(-c2cc(N3CCOCC3)nc(N3CCOCC3)n2)cn1 ... 2.09 µM (active)
COc1cc2nc(N3CCCN(C)CC3)nc(NC3CCN(Cc4ccccc4)CC3)c2cc1OC ... 7.43 µM (active)
CN1[C@@H]2CC(OC(=O)[C@@H](CO)c3ccccc3)C[C@H]1[C@H]1O[C@H]12 (stereo not given in full) ... inactive
